- measurement description: amyloid nucleation score (Sup35N fusion, yeast selection) (log enrichment); library NNK1; higher = more nucleation; inactive = no reads after selection;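 further: zero at mode of non-aggregating sequences after 7 days selection at 30°C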
value type: amyloid nucleation score

INSERT INTO assay_data (substance, value_type, reported_value) VALUES
  ('IMSKRTWWLRPRGPTACFQW', 'amyloid nucleation score', 0.208),
  ('PSFHICL', 'amyloid nucleation score', -0.489),
  ('RTSSIMSFPQCSCYSRRGVL', 'amyloid nucleation score', 1.73),
  ('MSLYYPSFDQPITKRVRLFF', 'amyloid nucleation score', -0.82),
  ('VWRTEQ', 'amyloid nucleation score', -0.533),
  ('HKSIMAYRN', 'amyloid nucleation score', 0.677),
  ('GKAASRNGGMWKEMRFEACD', 'amyloid nucleation score', 0.046),
  ('CIWSSNLFSRSSTSDWRLDT', 'amyloid nucleation score', -0.109),
  ('AGNCRDW', 'amyloid nucleation score', -0.857),
  ('YWKMRCM', 'amyloid nucleation score', 3.47),
  ('GQLSCLSFNVVTGRYKAIAF', 'amyloid nucleation score', 0.629),
  ('TTIAIRVLFQIVMVVSESRS', 'amyloid nucleation score', -0.247),
  ('PLTNRNIKIHYDLLSDDKMV', 'amyloid nucleation score', 0.602),
  ('MHRGALSTMQHLHEISLLSC', 'amyloid nucleation score', 0.886),
  ('AGPDSSGAGGGSARFLFPEL', 'amyloid nucleation score', 0.184),
  ('SNTSRLVRRVVQSPYTTCGG', 'amyloid nucleation score', 0.312),
  ('TEVWCIQLY', 'amyloid nucleation score', 0.787),
  ('VTRVRFGSVWGSQVHRNFVM', 'amyloid nucleation score', 0.212);

These data points were gathered from the supplement of paper PMC12042874.
